The values you see were collected from PubChem BioAssay (NCI).

Test system: OVCAR-5 ovarian
ASSAY REMARKS: NCI-60 one-dose screen, 48 h (100 = growth as untreated, 0 = no growth, -100 = all killed)
CONDITION DESCRIPTION: 10 µM unless noted
About 83,000 compounds went through this panel and 20% of them were active in at least one assay; those are over-represented in the sample as a whole.
// Condition not met strictly below 90% in growth; Condition met otherwise

Task: API: above_or_equal(metric=growth, cutoff=90%) for item "COc1ccc(Oc2nc(Nc3ccc(N4CCOCC4)cc3)ncc2NC(=O)Nc2cc(OC)cc(OC)c2)cc1"
Output: Condition not met

Task: What would you report for "CN1CCN(c2ccc3nc4c(nc3c2C(F)(F)F)C(=O)c2ncccc2C4=O)CC1" ?
Output: Condition not met

Task: What would you report for "N#Cc1c(-c2ccccc2)nc(SCc2nnc(-c3ccc(Cl)cc3)o2)[nH]c1=O" ?
Output: Condition met

Task: What would you report for "COc1ccc(C#Cc2ccc(=O)oc2-c2cc(OC)c(OC)c(OC)c2)cc1O" ?
Output: Condition not met

Task: What would you report for "CCN(CC)CCN1C(=O)c2cccc3c(/C=C/CN4C(=O)c5cccc6cccc(c56)C4=O)ccc(c23)C1=O" ?
Output: Condition met

Task: What would you report for "Clc1ccc(-c2cc(-c3ccccc3)nc(NCCNc3ccnc4cc(Cl)ccc34)n2)cc1" ?
Output: Condition not met

Task: What would you report for "COc1ccc(/C=C/c2ccc3ccccc3n2)c(OC)c1" ?
Output: Condition not met

Task: What would you report for "CCCC(CC)(C(=O)Nc1ccc2nc(C)cc(N)c2c1)C(=O)Nc1ccc2nc(C)cc(N)c2c1" ?
Output: Condition not met

Task: What would you report for O=P(O)(O)OCC1OC(n2cnc3c(NCc4ccco4)ncnc32)C(O)C1O (stereo unspecified) ?
Output: Condition not met

Task: What would you report for Cc1nn(-c2cc(NC3CCC(O)CC3)c3c(=O)[nH]c(CCC(F)(F)F)cc3c2)c2c1C(=O)CC(C)(C)C2 (stereo unspecified) ?
Output: Condition not met

Task: What would you report for "NNCCc1ccc(NC(=O)CCCc2ccc(C(=O)Nc3ccccc3N)cc2)cc1" ?
Output: Condition not met

Task: What would you report for "Cc1ccc(S(=O)(=O)OCCCOS(=O)(=O)c2ccc(C)cc2)cc1" ?
Output: Condition met

Task: What would you report for "Cc1ccc(/C=C/C(=O)c2ccc(-n3cc(CN4CCN(c5cc6c(cc5F)c(=O)c(C(=O)O)cn6C5CC5)CC4)nn3)cc2)cc1" ?
Output: Condition met

Task: What would you report for "CC/C=C\C[C@H](O)C/C=C1/C(=O)C=C[C@@H]1C/C=C\CCCC(=O)O" ?
Output: Condition met

Task: What would you report for "O=C1/C(=C2\SC(=S)N(C3CC3)C2=O)SC(=S)N1C1CC1" ?
Output: Condition met

Task: What would you report for "O=S(=O)(NCCNc1nccc(-c2c(-c3cccc(O)c3)nc3occn23)n1)c1ccc(Br)cc1" ?
Output: Condition not met

Task: What would you report for "NC(=O)c1cnc(Nc2cccc(N)c2)nc1NCCCNC(=O)C1CCC1" ?
Output: Condition met

Task: What would you report for "O=S(=O)(Nc1cc(Sc2cccc3cccnc23)c(O)c2ccccc12)c1ccccc1" ?
Output: Condition not met

Task: What would you report for "O=C(Nc1ncc(Cc2cc(C(F)(F)F)ccc2Cl)s1)c1cccs1" ?
Output: Condition not met
